Source listed as patent US10227357B2.

Biological target: c-kit kinase (Homo sapiens, UniProt P10721)
Construct: The c-kit (or kinase domain thereof) is an active kinase in AlphaScreen; poly-Histidine tag (in-house protein only) (cleaved yes); host or cells: E. coli BL21(DE3)RIL, co-expressed with PTP1B
Sequence (P10721 26-976): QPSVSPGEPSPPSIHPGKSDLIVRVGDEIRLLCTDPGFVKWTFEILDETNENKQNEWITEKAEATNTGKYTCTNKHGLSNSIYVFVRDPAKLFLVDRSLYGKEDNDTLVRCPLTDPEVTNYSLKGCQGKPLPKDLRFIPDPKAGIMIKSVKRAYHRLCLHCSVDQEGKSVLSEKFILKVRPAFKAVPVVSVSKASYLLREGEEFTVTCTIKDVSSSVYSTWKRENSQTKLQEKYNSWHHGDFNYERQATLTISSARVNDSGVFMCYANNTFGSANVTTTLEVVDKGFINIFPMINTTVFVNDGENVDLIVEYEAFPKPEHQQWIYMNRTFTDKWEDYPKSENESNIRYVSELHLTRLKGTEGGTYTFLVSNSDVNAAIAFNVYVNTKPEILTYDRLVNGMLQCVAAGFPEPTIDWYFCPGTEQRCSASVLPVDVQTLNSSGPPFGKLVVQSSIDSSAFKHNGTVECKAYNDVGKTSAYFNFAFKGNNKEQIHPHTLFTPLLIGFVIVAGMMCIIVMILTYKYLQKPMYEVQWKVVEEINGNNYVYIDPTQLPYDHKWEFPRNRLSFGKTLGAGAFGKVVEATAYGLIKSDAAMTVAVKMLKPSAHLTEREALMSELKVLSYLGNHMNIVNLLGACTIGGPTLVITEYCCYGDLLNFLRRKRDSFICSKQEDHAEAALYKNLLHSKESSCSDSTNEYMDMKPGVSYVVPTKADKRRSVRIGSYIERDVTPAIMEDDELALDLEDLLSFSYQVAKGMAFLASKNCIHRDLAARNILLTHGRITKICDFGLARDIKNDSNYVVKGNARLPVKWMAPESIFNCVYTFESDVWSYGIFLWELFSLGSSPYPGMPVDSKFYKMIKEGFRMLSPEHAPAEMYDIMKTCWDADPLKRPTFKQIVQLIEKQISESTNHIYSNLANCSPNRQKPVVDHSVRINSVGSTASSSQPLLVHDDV
Experiment: c-Kit biochemical assay, AlphaScreen, 10 μM ATP
Conditions: c-kit biochemical inhibitory activity; read-out: Biochemical activity (IC50 μM) Kit
measure: IC50

- CCCCS(=O)(=O)Nc1ccc(-c2cc3c(-c4ccc(NS(=O)(=O)CCCC)cc4)ncnc3[nH]2)cc1: 10 to 200 µM
- C[C@@H]1CN(c2ncnc3[nH]c(-c4ccncc4)cc23)CCN1C(=O)NCc1ccc(Cl)cc1: 0.0001 to 1 µM
- C[C@H](NC(=O)N1CCN(c2ncnc3[nH]c(-c4ccc(F)cc4)cc23)CC1(C)C)c1ccc(Cl)cc1: 1 to 10 µM
- Cc1cc2c(-c3ccc(NS(=O)(=O)c4cccc(Cl)c4)cc3F)ncnc2[nH]1: 1 to 10 µM
- O=C(NCc1ccc(Cl)cc1)N1CCN(c2ncnc3[nH]c(-c4ccc(Cl)cc4)cc23)CC1: 1 to 10 µM
- COc1ncc(CNC(=O)N2CCN(c3ncnc4[nH]c(-c5ccc(F)cc5)cc34)CC2)cc1F: 1 to 10 µM

---

Biological target: c-kit mutant D816V (Homo sapiens, UniProt P10721, D816V/DEL694-753)
Construct: residues 551-934, kinase insertion domain residues 694-753 deleted; 6x-histidine (N); made in house; host or cells: E. coli Arctic Express (DE3) RIL (Stratagene)
Sequence (P10721 with tags, fused parts or gaps DEL694-753/D816V): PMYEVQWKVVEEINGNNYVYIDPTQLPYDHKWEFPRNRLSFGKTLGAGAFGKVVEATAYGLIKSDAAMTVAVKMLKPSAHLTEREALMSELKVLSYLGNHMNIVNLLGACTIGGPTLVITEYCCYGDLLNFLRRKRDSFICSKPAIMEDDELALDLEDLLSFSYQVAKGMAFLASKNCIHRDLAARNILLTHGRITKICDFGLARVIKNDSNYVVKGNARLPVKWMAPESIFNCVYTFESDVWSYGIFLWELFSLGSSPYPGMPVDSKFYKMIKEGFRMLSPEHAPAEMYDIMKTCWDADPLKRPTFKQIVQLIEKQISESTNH
Assay: c-Kit mutant D816V biochemical assay, AlphaScreen
Settings: c-kit D816V biochemical inhibitory activity; read-out: Biochemical activity (IC50 μM) Kit D816V
IC50 values by entry
measure: IC50

- CN(C)c1ccc(NC(=O)N2CCN(c3ncnc4[nH]c(C#CC5CC5)cc34)CC2)cc1: 10 to 200 µM
- CN(C)c1ccc(-c2cc3c(N4CCN(C(=O)Nc5ccc(OC(F)(F)F)cc5)CC4)ncnc3[nH]2)cn1: 1 to 10 µM
- C[C@H](NC(=O)N1CCN(c2ncnc3[nH]c(-c4ccc(F)cc4)cc23)CC1)c1cccc(N(C)C)c1: 0.0001 to 1 µM
- Cc1cc2c(N3CCC(NS(=O)(=O)c4ccc(Cl)cc4)CC3)ncnc2[nH]1: 0.0001 to 1 µM

---

Attribute: IC50
Target: c-kit kinase (Homo sapiens, UniProt P10721)
Construct: The c-kit (or kinase domain thereof) is an active kinase in AlphaScreen; poly-Histidine tag (in-house protein only) (cleaved yes); host or cells: E. coli BL21(DE3)RIL, co-expressed with PTP1B
Assay: c-Kit biochemical assay, AlphaScreen, 10 μM ATP
Details: c-kit biochemical inhibitory activity; read-out: Biochemical activity (IC50 μM) Kit
measure: IC50

• Cc1cc2c(-c3ccc(NS(=O)(=O)c4sc(C)nc4C)cc3)ncnc2[nH]1 = 10 to 200 µM
• O=C(Nc1ccccc1)c1cc2c(N3CCN(C(=O)NCc4ccc(F)cc4)CC3)ncnc2[nH]1 = 10 to 200 µM
• NC(=O)c1cccc(-c2cc3c(N4CCN(C(=O)Nc5ccc(OC(F)(F)F)cc5)CC4)ncnc3[nH]2)c1 = 0.0001 to 1 µM
• O=S(=O)(Nc1ccc(-c2ncnc3[nH]c(-c4ccc(F)cc4)cc23)c(F)c1)C1CC1 = 10 to 200 µM
• O=C(C1CC1)N1CC=C(c2cc3ncnc(-c4ccc(NS(=O)(=O)c5ccc(F)cc5)cc4)c3s2)CC1 = 0.0001 to 1 µM
• O=C(C1CC1)N1CC=C(c2cc3ncnc(-c4ccc(NS(=O)(=O)C5CC5)cc4)c3s2)CC1 = 0.0001 to 1 µM
• O=S(=O)(NC1CCN(c2ncnc3[nH]c(-c4cc(Cl)cs4)cc23)CC1)c1ccc(OC(F)(F)F)cc1 = 10 to 200 µM
• O=C(NCc1ccc(C(F)(F)F)nc1)N1CCN(c2ncnc3[nH]c(-c4ccc(Cl)cc4)cc23)CC1 = 10 to 200 µM
• CC1CN(c2ncnc3[nH]c(-c4ccncc4)cc23)CCN1C(=O)Nc1ccccc1 (centres unmarked) = 1 to 10 µM
• C[C@H]1CN(c2ncnc3[nH]c(-c4ccncc4)cc23)CCN1C(=O)Nc1ccc(N(C)C)cc1 = 1 to 10 µM
• CCCS(=O)(=O)Nc1cccc(-c2ncnc3[nH]c(-c4ccc(F)cc4)cc23)c1 = 1 to 10 µM
• Cc1cc2c(-c3ccc(NS(=O)(=O)c4ccc5c(c4)CCC5)cc3)ncnc2[nH]1 = 10 to 200 µM
• COc1cc(-c2cc3c(C4=CCC(NS(=O)(=O)c5ccc(OC(F)(F)F)cc5)CC4)ncnc3[nH]2)ccn1 (centres unmarked) = 10 to 200 µM
• Cn1cc(-c2cc3ncnc(N4CCN(C(=O)Nc5ccccc5)CC4)c3s2)cn1 = 1 to 10 µM
• C[C@H](NC(=O)N1CCN(c2ncnc3[nH]c(-c4ccc(C#N)cc4)cc23)C[C@H]1C)c1ccc(Cl)cc1 = 10 to 200 µM
• C[C@H](NC(=O)N1CCN(c2ncnc3[nH]c(-c4cnn(C)c4)cc23)CC1)c1ccc(Cl)cc1 = 0.0001 to 1 µM
• O=C(c1ccccc1)N1CCN(c2ncnc3[nH]ccc23)CC1 = 10 to 200 µM
• NS(=O)(=O)c1ccc(-c2cc3c(N4CCN(C(=O)NCc5ccc(F)cc5)CC4)ncnc3[nH]2)cc1 = 1 to 10 µM
• O=S(=O)(Nc1ccc(-c2cc3c(-c4ccc(NS(=O)(=O)C5CC5)cc4)ncnc3[nH]2)cc1)C1CC1 = 1 to 10 µM
• Cc1ccc(S(=O)(=O)Nc2ccc(-c3ncnc4cc(C5CCNCC5)sc34)cc2)cc1 = 10 to 200 µM

---

# Lookup of reported IC50 keyed by entry
Target: c-kit mutant D816V (Homo sapiens, UniProt P10721, D816V/DEL694-753)
Construct: residues 551-934, kinase insertion domain residues 694-753 deleted; 6x-histidine (N); made in house; host or cells: E. coli Arctic Express (DE3) RIL (Stratagene)
Experiment: c-Kit mutant D816V biochemical assay, AlphaScreen
Settings: c-kit D816V biochemical inhibitory activity; read-out: Biochemical activity (IC50 μM) Kit D816V
measure: IC50

* COc1cc(-c2cc3c(C4=CCC(NS(=O)(=O)c5ccc(OC(F)(F)F)cc5)CC4)ncnc3[nH]2)ccn1 (centres unmarked) | 0.0001 to 1 µM
* COc1cc(-c2cc3c(N4CCN(C(=O)N[C@@H](C)c5ccc(Cl)cc5)C(C)(C)C4)ncnc3[nH]2)ccn1 | 0.0001 to 1 µM
* CCOC(=O)N1CCN(c2cc3ncnc(N4CCN(C(=O)N[C@@H](C)c5cccc(OC)c5)C(C)(C)C4)c3s2)CC1 | 0.0001 to 1 µM
* COc1cccc([C@@H](C)NC(=O)N2CCN(c3ncnc4[nH]c(-c5ccc(F)cc5)cc34)C[C@H]2C)c1 | 1 to 10 µM
* O=C(NCc1ccc(Cl)cn1)N1CCN(c2ncnc3[nH]c(-c4cccnc4)cc23)CC1 | 0.0001 to 1 µM
* Cc1nc(-c2cccc(NC(=O)NC3CCN(c4ncnc5[nH]ccc45)CC3)c2)no1 | 10 to 200 µM
* COc1cc(-c2cc3c(N4CCN(C(=O)N[C@@H](C)c5cccc(OC(F)F)c5)C(C)(C)C4)ncnc3[nH]2)ccn1 | 0.0001 to 1 µM
* CS(=O)(=O)Nc1ccccc1-c1ncnc2[nH]c(-c3ccc(F)cc3)cc12 | 10 to 200 µM
* COc1cccc([C@H](C)NC(=O)N2CCN(c3ncnc4[nH]c(-c5ccc(F)cc5)cc34)CC2)c1 | 0.0001 to 1 µM
* O=S(=O)(Nc1ccc(-c2ncnc3[nH]c(-c4ccc(F)cc4)cc23)cc1)C1CC1 | 0.0001 to 1 µM
* COc1cccc(CNC(=O)N2CCN(c3ncnc4[nH]c(-c5cccnc5)cc34)CC2)n1 | 1 to 10 µM
* O=C(NCc1ccc(F)cc1)N1CCN(c2ncnc3cc(-c4cnn(CCN5CCOCC5)c4)sc23)CC1 | 0.0001 to 1 µM
* Cc1cc2c(-c3ccc(NS(=O)(=O)c4ccc(Cl)s4)cc3)ncnc2[nH]1 | 1 to 10 µM
* CC[C@H](NC(=O)N1CCN(c2ncnc3[nH]c(-c4ccncc4)cc23)C[C@H]1C)c1ccccc1 | 0.0001 to 1 µM
* Cc1ccc(-c2cc3c(N4CCN(C(=O)N[C@@H](C)c5cccc(Cl)c5)C(C)(C)C4)ncnc3[nH]2)cn1 | 0.0001 to 1 µM
* COc1cc2ncnc(-c3ccc(NS(C)(=O)=O)c(F)c3)c2cc1OC | 0.0001 to 1 µM
* O=S(=O)(Nc1ccc(-c2ncnc3[nH]c(C4=CCCC4)cc23)cc1)c1ccc(F)cc1 | 0.0001 to 1 µM
* COc1cccc([C@H](C)NC(=O)N2CCN(c3ncnc4cc(-c5ccc(F)cc5)sc34)CC2(C)C)c1 | 0.0001 to 1 µM
* c1nc(N2CCNCC2)c2cc[nH]c2n1 | 10 to 200 µM
* O=C(NCc1ccc(Cl)cc1)N1CCN(c2ncnc3[nH]ccc23)CC1 | 10 to 200 µM
* CS(=O)(=O)Nc1cccc(-c2cc3c(N4CCN(C(=O)NCc5ccc(F)cc5)CC4)ncnc3[nH]2)c1 | 0.0001 to 1 µM
* O=C(Nc1ccc(Cl)cc1)N1CCN(c2ncnc3[nH]ccc23)CC1 | 10 to 200 µM
* O=C(Nc1ccccc1Cl)N1CCN(c2ncnc3[nH]c(-c4cccnc4)cc23)CC1 [P-0220] | 0.0001 to 1 µM
